# Experimental Protocol: Intrinsic clearance in rat hepatocytes assessed per million cells
# Assay type: ADME, cell-based, Hepatocyte
# Condition Label: read-out: CLH

# Test Smiles, Display Unit, hepatocyte CLint
measured = [
    ("CC(C)c1nc(N2CCN(c3ncc(OCc4ccncc4C#N)cn3)[C@H](C)C2)no1", "µL/min/1e6 cells", 29),
]

====

# Experimental Protocol: physchem
# Condition Label: octanol/phosphate buffer, pH 7.4
# label = 1 if logD >= 3 else 0

# Test Smiles, Assigned Label
rows = [
    ("CC(C)(C)OC(=O)N1CCN(c2ncc(OCc3ccc(S(C)(=O)=O)cc3)cn2)CC1", 1),
    ("CC(C)c1nc(N2CCN(c3ncc(OCc4ccncc4C#N)cn3)[C@H](C)C2)no1", 1),
    ("CC(C)(C)OC(=O)N1CCN(c2ncc(OCc3ccncc3C#N)cn2)CC1", 0),
    ("C[C@@H]1CN(c2noc(C3CC3)n2)CCN1c1ncc(OCc2ccncc2C#N)cn1", 1),
    ("C[C@@H]1CN(C(=O)OC(C)(C)C)CCN1c1ncc(OCc2ccc(-n3cnnn3)cc2)cn1", 1),
    ("C[C@@H]1CN(C(=O)OC(C)(C)C)CCN1c1ncc(OCC2CCN(S(C)(=O)=O)CC2)cn1", 1),
    ("CC(C)(C)OC(=O)N1C[C@@H]2CC[C@H]1CN2c1ncc(OCc2ccc(S(C)(=O)=O)cc2)cn1", 1),
    ("CC(C)(C)OC(=O)N1C[C@@H]2C[C@H]1CN2c1ncc(OCc2ccc(S(C)(=O)=O)cc2)cn1", 0),
    ("COc1cnccc1COc1cnc(N2CCN(C(=O)OC(C)(C)C)CC2)nc1", 1),
    ("C[C@@H]1CN(c2ncc(OCc3ccc(S(C)(=O)=O)cc3)cn2)CCN1C(=O)OC(C)(C)C", 1),
    ("C[C@@H]1CN(c2ncc(OCc3ccc(S(C)(=O)=O)cc3)cn2)[C@@H](C)CN1C(=O)OC(C)(C)C", 1),
    ("C[C@@H]1CN(C(=O)OC(C)(C)C)CCN1c1ncc(OCc2ccc(S(=O)(=O)N(C)C)cc2)cn1", 1),
    ("C[C@@H]1CN(c2noc(C(F)(F)F)n2)CCN1c1ncc(OCc2ccncc2C#N)cn1", 1),
]

====

# Experimental Protocol: Cmax in C57BL6 mouse at 100 mg/kg
# Format: ADME, organism-based
# Set-up: dose 100 mg/kg
# Condition Label: in vivo

# Test Smiles, Cmax / µM
rows = [
    ("CC(C)c1nc(N2CCN(c3ncc(OCc4ccncc4C#N)cn3)[C@H](C)C2)no1", 14),
]

====

# Experimental Protocol: Oral bioavailability in Han Wistar rat at 5 mg/kg
# Type: ADME, organism-based
# Condition Label: in vivo

# Test Smiles, bioavailability / %
rows = [
    ("CC(C)c1nc(N2CCN(c3ncc(OCc4ccncc4C#N)cn3)[C@H](C)C2)no1", 29),
]

====

# Experimental Protocol: Cmax in C57BL6 mouse at 5 mg/kg
# Format: ADME, organism-based
# Parameters: dose 5 mg/kg
# Condition Label: in vivo
Metric Name: Cmax (nM)

# Test Smiles, Metric Name, Display Unit, Value Measured
measured = [
    ("CC(C)c1nc(N2CCN(c3ncc(OCc4ccncc4C#N)cn3)[C@H](C)C2)no1", "Cmax", "nM", 400),
]
